experimental_system: HLA-B*38:01
test_method_notes: IEDB peptide-MHC binding, purified MHC/direct/fluorescence; filed as Kd, often an IC50 or EC50 that approximates it; bounds were set here for any values at or beyond the usual limits of such assays
assay_setup: source organism: Bacillus cereus 03BB108
measure: Kd

# query_sequence, result
measured = [
    ("WFREDRSPV", "≥ 20 µM"),
]

----------
experimental_system: HLA-A*02:01
test_method_notes: IEDB peptide-MHC binding, purified MHC/competitive/radioactivity; filed as Kd, often an IC50 or EC50 that approximates it; bounds were set here for any values at or beyond the usual limits of such assays
assay_setup: source organism: Homo sapiens
measure: Kd (nM)

# query_sequence, measure, numeric_result
rows = [
    ("ILNAMITKI", "Kd", 95),
]

----------
experimental_system: HLA-A*24:02
test_method_notes: IEDB peptide-MHC binding, purified MHC/direct/fluorescence; filed as Kd, often an IC50 or EC50 that approximates it; bounds were set here for any values at or beyond the usual limits of such assays
assay_setup: source organism: Giardia lamblia ATCC 50803
measure: Kd

# query_sequence, result
data = [
    ("VSSKKCTAL", "≥ 20 µM"),
]

----------
experimental_system: HLA-A*31:01
test_method_notes: IEDB peptide-MHC binding, purified MHC/direct/fluorescence; filed as Kd, often an IC50 or EC50 that approximates it; bounds were set here for any values at or beyond the usual limits of such assays
assay_setup: source organism: Rickettsia prowazekii
pKd: −log10 of the molar value.

# query_sequence, experimental_system, pKd
data = [
    ("NLKLYGAEF", "HLA-A*31:01", "≤ 4.70"),
]

----------
experimental_system: HLA-A*02:01
test_method_notes: IEDB peptide-MHC binding, purified MHC/competitive/fluorescence; filed as Kd, often an IC50 or EC50 that approximates it; bounds were set here for any values at or beyond the usual limits of such assays
assay_setup: source organism: Human herpesvirus 4 strain B95-8
measure: Kd (nM)

# query_sequence, experimental_system, measure, numeric_result
measured = [
    ("YLLEMLWRL", "HLA-A*02:01", "Kd", 4.5),
]

----------
Here the recorded pKd is given for each entry.
experimental_system: HLA-B*44:03
test_method_notes: IEDB peptide-MHC binding, purified MHC/competitive/radioactivity; filed as Kd, often an IC50 or EC50 that approximates it; bounds were set here for any values at or beyond the usual limits of such assays
assay_setup: source organism: SARS coronavirus Tor2
pKd: −log10 of the molar value.

# query_sequence, comparative_sign, pKd
records = [
    ("SEAREHLKNG", "≤", 4.55),
    ("KEQYCALSPG", "=", 5.46),
    ("HEGHQTAAF", "=", 5.32),
    ("TEIEPKLDG", "=", 4.87),
]

----------
experimental_system: HLA-A*02:12
test_method_notes: IEDB peptide-MHC binding, purified MHC/direct/fluorescence; filed as Kd, often an IC50 or EC50 that approximates it; bounds were set here for any values at or beyond the usual limits of such assays
assay_setup: source organism: Choclo virus

# query_sequence, Kd
data = [
    ("PELGAFFAI", "≥ 20 µM"),
]

----------
experimental_system: HLA-A*02:01
test_method_notes: IEDB peptide-MHC binding, purified MHC/competitive/fluorescence; filed as Kd, often an IC50 or EC50 that approximates it; bounds were set here for any values at or beyond the usual limits of such assays
assay_setup: source organism: Reston ebolavirus - Reston (1989)
pKd: −log10 of the molar value.

# query_sequence, pKd
rows = [
    ("QLSLRMLSL", "≤ 4.70"),
]

Origin of values: the Immune Epitope Database (IEDB)
